Values compiled from patent US20150119410A1.

System: FADU
Assay: Cell line panel 2 high-content screen
Assay type: cell-based
Conditions: Homo sapiens; FADU (upper aerodigestive tract); 72 hours

compound: NS(=O)(=O)OC[C@@H]1C[C@@H](n2ccc3c(N[C@H]4CCc5ccccc54)ncnc32)C[C@@H]1O [MLN4924]
EC50 [nM]: 261

###

Tested on: COLO-205
Assay: Cell line panel 2 high-content screen
Format: cell-based
Settings: Homo sapiens; COLO-205 (intestine); 72 hours
pEC50: −log10 of the molar value.

molecule: NS(=O)(=O)OC[C@@H]1C[C@@H](n2ccc3c(N[C@H]4CCc5ccccc54)ncnc32)C[C@@H]1O
pEC50: 7.03

###

Tested on: ACHN
Assay: Cell line panel 2 high-content screen
Assay type: cell-based
Conditions: Homo sapiens; ACHN (kidney); 72 hours

molecule: NS(=O)(=O)OC[C@@H]1C[C@@H](n2ccc3c(N[C@H]4CCc5ccccc54)ncnc32)C[C@@H]1O
EC50: 652 nM

###

System: MDA-MB-468
Experiment: Cell line panel 2 high-content screen
Format: cell-based
Details: Homo sapiens; MDA-MB-468 (breast); 72 hours
pEC50: −log10 of the molar value.

molecule: NS(=O)(=O)OC[C@@H]1C[C@@H](n2ccc3c(N[C@H]4CCc5ccccc54)ncnc32)C[C@@H]1O
pEC50: 7.57

###

Test system: RL95-2
Assay: Cell line panel 2 high-content screen
Type: cell-based
Details: Homo sapiens; RL95-2 (endometrium); 72 hours

molecule: NS(=O)(=O)OC[C@@H]1C[C@@H](n2ccc3c(N[C@H]4CCc5ccccc54)ncnc32)C[C@@H]1O
measured on: RL95-2
EC50 [nM]: 94
